For each entry below, report its kd (1/s) cynoB7-H3 value.
- Tested on: cyno B7-H3
- Sequence (as listed by the source): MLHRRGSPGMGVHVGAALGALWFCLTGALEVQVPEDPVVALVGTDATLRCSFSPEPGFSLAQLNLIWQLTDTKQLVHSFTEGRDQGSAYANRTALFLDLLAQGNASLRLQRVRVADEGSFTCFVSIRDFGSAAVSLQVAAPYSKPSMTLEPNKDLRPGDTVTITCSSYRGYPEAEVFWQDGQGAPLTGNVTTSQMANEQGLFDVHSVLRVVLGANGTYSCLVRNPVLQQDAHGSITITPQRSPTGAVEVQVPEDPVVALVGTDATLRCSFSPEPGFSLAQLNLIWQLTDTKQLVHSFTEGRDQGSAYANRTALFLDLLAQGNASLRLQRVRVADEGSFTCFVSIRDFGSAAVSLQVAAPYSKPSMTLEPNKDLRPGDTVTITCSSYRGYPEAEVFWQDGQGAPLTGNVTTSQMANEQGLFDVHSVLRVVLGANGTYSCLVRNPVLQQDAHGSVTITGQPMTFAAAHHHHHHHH
- Experimental protocol: Biacore T200 SPR binding kinetics, mAb capture, soluble ECD of cyno B7-H3
- Set-up: species or system cynomolgus monkey
- Experimental parameters: 1:1 binding model
Please format your answer as a value with the unit trailing.

Give the measured kd (1/s) cynoB7-H3 of Ab4: murine anti-B7-H3 mAbs; mouse hybridoma derived (antibody, V domains shown) VH: QVQLQQPGAELVKPGASVKLSCKASGYSFTSYWMHWVKQRPGQGLEWIGMIHPNSGSNNYNEKFKSKATLTVDKSSNTAYMQLSSLTSEDSAVYYCARRLGLHFDYWGQGTTLTVSS VL: DIVMTQSQKFMSTPVGDRVSITCKASQNVGTAVAWYQQKPGQSPKLLIYSASNRYTGVPDRFTGSGSGTDFTLTISNMQSEDLADYFCQQYSSYPYTFGGGTKLEIK .
0.00096 s⁻¹

Give the measured kd (1/s) cynoB7-H3 of Ab18: the murine monoclonal Ab18 (antibody, V domains shown) VH: QVQLQQSAAELARPGASVKMSCKASGYSFTSYTIHWVKQRPGQGLEWIGYINPNSRNTDYNQKFKDETTLTADRSSSTAYMQLISLTSEDSAVYYCARYSGSTPYWYFDVWGAGTTVTVSS VL: QIVLTQSPAILSASPGEKVTMTCRASSSVSYMNWYQQKPGSSPKPWIYATSNLASGVPARFSVSVSGTSHSLTISRVEAEDAATYYCQQWSSNPLTFGAGTKLELK .
2.9e-05 s⁻¹

Give the measured kd (1/s) cynoB7-H3 of Ab11: murine anti-B7-H3 mAbs; mouse hybridoma derived (antibody, V domains shown) VH: EVKLVESGGGLVQPGGSLRLSCATSGFTFTNYYMSWVRQPPGKALEWLGFIRNKANDYTTEYSASVKGRFTISRDNSQSILYLQMNTLRAEDSATYYCARESPGNPFAYWGQGTLVTVSA VL: DIVMTQSPSSLTVTAGEKVTMTCKSSQSLLNSGTQKNFLTWYQQKPGQPPKLLIYWASTRESGVPDRFTGSGSGTDFTLTISSVQAEDLAVYFCQNDYIYPLTFGAGTKLELK .
7.2e-05 s⁻¹

Give the measured kd (1/s) cynoB7-H3 of Ab14: mouse hybridoma derived anti-B7-H3 monoclonal antibodies (mAbs) (antibody, V domains shown) VH: EVKLVESGGGLVKPGGSLKLSCAASGFTFSSYGMSWVRQTPEKRLEWVATISGGGTNTYYPDSVEGRFTISRDNAKNFLYLQMSSLRSEDTALYYCARHYGSQTMDYWGQGTSVTVSS VL: DIQMTQSPASLSASVGETVTITCRTSGNIHNYLTWYQQKQGKSPQLLVYNAKTLADGVPSRFSGSGSGTQFSLKINSLQPEDFGSYYCQHFWSIMWTFGGGTKLEIK .
0.003 s⁻¹
